biological target: CDK1/CCNB1 (Homo sapiens); experiment: CDK1 homogeneous time-resolved fluorescence (HTRF) kinase assay; type: biochemical; conditions: CDK1/CCNB; x = IC50 25-250 nM; read-out: CDK1/CCNB IC50 (25-250 nM)
Sequence (P06493 whole entry): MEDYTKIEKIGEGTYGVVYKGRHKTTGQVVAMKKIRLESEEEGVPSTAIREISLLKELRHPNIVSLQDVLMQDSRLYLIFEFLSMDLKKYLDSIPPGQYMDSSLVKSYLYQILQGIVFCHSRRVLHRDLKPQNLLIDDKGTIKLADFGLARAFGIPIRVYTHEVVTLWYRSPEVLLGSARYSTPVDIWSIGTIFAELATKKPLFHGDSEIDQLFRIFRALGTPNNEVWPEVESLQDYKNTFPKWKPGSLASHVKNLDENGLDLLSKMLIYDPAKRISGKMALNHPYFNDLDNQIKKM
Sequence (P14635 whole entry partner): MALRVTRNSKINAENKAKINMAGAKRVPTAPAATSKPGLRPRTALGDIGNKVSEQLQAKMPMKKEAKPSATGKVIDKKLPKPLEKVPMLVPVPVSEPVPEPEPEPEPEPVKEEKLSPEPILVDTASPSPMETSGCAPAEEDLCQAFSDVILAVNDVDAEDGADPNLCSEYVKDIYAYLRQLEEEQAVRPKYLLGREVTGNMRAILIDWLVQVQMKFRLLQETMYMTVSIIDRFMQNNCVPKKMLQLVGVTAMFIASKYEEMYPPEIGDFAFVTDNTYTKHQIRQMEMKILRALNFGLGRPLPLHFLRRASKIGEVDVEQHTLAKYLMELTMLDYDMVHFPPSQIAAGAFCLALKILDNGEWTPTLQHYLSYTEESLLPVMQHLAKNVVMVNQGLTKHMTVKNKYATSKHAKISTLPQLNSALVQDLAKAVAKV
pIC50: −log10 of the molar value.
Reported pIC50 values are given for each entry in this list.

Take a look at these entries with their results.
| Molecule | Target or system | pIC50 |
| --- | --- | --- |
| N=S(=O)(c1ccc(Nc2cc3c(C#Cc4ccc5c(c4)NC(=O)C54CCC4)nccc3cn2)cc1)C1CC1 (single isomer, unassigned) | CDK1/CCNB1 (Homo sapiens) | 6.60 to 7.60 |
| Cc1cc(S(N)(=O)=O)ccc1Nc1cc2c(C#Cc3cccnc3N)nccc2cn1 | CDK1/CCNB1 (Homo sapiens) | 6.60 to 7.60 |
| CC(C)S(=N)(=O)c1ccc(Nc2cc3c(C#Cc4ccc5c(c4)NC(=O)C54CC4)nccc3cn2)cc1 (single isomer, unassigned) | CDK1/CCNB1 (Homo sapiens) | 6.60 to 7.60 |

Query pIC50 on CDK1/CCNB1 (Homo sapiens) for COCC1(COC)C(=O)Nc2cc(C#Cc3nccc4cnc(Nc5ccc(S(C)(=O)=O)cc5)cc34)ccc21 6.60 to 7.60

Query pIC50 on CDK1/CCNB1 (Homo sapiens) for CC1(C)C(=O)Nc2nc(C#Cc3nccc4cnc(Nc5ccc(S(C)(=O)=O)cc5)cc34)ccc21 6.60 to 7.60

====

target: CDK2/CCNE1 (Homo sapiens); experiment: CDK2 homogeneous time-resolved fluorescence (HTRF) kinase assay; type: biochemical; settings: CDK2/CCNE; x = IC50 25-250 nM; read-out: CDK2/CCNE IC50 (25-250 nM)
Reported IC50 values are given for each entry in this list.

Consider the compound CS(=O)(=O)c1ccc(Nc2cc3c(C#Cc4cncc5[nH]ncc45)nccc3cn2)cc1 [Ex 611] and give its measured IC50. 25 to 250 nM

Consider the compound CN=S(C)(=O)c1ccc(Nc2cc3c(-c4ccc5c(cnn5CC(O)(C(F)(F)F)C(F)(F)F)c4C)nccc3cn2)cc1 (racemic) [Ex 470] and give its measured IC50. 25 to 250 nM

Consider the compound CS(=O)(=O)c1ccc(Nc2cc3c(C#Cc4ccc(N)nc4Cl)nccc3cn2)cc1 [Ex 558] and give its measured IC50. 25 to 250 nM

Consider the compound CS(=O)(=O)c1ccc(Nc2cc3c(N4CC[C@H](c5ccc(C#N)cc5)[C@H](O)C4)nccc3cn2)cc1 (relative stereo) [Example 606] and give its measured IC50. 25 to 250 nM

Consider the compound CN1Cc2cc(-c3nccc4cnc(Nc5ccc(S(C)(=O)=O)cc5)cc34)ccc2C1=O [Ex 624] and give its measured IC50. 25 to 250 nM

Consider the compound CC(=O)Nc1ncc(C#Cc2nccc3cnc(Nc4ccc(S(C)(=O)=O)cc4)cc23)s1 [Ex 505] and give its measured IC50. 25 to 250 nM

====

molecular target: CDK6/CCND1 (Homo sapiens); test: CDK6 homogeneous time-resolved fluorescence (HTRF) kinase assay; assay type: biochemical; settings: CDK6/CCND; x = IC50 >250 nM; read-out: CDK6/CCND IC50 (>250 nM column)
Sequence (Q00534 whole entry): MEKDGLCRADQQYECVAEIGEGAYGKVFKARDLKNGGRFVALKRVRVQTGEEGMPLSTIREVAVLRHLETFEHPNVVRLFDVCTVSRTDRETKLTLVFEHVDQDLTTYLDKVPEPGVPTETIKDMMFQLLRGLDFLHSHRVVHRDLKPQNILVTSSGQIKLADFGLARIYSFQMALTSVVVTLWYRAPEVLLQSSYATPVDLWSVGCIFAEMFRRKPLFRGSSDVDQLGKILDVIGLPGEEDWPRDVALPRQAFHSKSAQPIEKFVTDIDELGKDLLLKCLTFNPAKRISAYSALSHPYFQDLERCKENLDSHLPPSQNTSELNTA
Sequence (P24385 whole entry partner): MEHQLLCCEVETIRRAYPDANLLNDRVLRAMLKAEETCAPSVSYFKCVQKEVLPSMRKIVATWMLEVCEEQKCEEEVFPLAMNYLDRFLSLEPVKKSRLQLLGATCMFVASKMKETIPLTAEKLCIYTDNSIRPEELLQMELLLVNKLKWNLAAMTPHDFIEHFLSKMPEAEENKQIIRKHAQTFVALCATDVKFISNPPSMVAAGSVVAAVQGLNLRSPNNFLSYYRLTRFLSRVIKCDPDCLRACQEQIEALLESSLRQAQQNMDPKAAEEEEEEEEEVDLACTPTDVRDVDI
pIC50: −log10 of the molar value.
Reported pIC50 values are given for each entry in this list.

Consider the compound Nc1ncccc1C#Cc1nccc2cnc(Nc3ccc(S(N)(=O)=O)cc3F)cc12 [Ex 466] and give its measured pIC50. < 6.60

Consider the compound CS(=O)(=O)c1ccc(Nc2cc3c(C#Cc4ccc(=O)n(C(F)F)c4)nccc3cn2)cc1 [Ex 528] and give its measured pIC50. < 6.60

Consider the compound CC1(C)C(=O)Nc2cc(C#Cc3nccc4cnc(Nc5ccc(S(C)(=O)=O)cn5)cc34)ccc21 [Ex 439] and give its measured pIC50. < 6.60

Consider the compound CS(=O)(=O)c1ccc(Nc2cc3c(C#Cc4cc(N)ncc4F)nccc3cn2)cc1 [Ex 557] and give its measured pIC50. < 6.60
